Molecular target: rat P2X4R (P2X4 receptor) (Rattus norvegicus, UniProt P51577, R33L)
Construct: full-length cDNA in pcDNA3, cRNA expressed in Xenopus laevis oocytes; homomeric trimer; ~60 kDa band
Sequence (P51577 whole entry R33L): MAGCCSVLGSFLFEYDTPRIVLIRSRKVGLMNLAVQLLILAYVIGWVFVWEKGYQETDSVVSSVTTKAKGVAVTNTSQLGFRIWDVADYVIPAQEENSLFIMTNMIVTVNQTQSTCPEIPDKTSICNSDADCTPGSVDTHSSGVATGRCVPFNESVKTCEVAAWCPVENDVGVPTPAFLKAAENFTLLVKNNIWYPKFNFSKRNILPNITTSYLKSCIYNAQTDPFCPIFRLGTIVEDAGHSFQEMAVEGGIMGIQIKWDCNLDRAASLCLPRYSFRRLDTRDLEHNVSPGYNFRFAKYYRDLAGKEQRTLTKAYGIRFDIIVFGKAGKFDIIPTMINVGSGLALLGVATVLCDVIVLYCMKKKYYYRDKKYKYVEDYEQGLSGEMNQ
Test: two-electrode voltage clamp, Xenopus oocytes, ATP-gated current
Text: two-electrode voltage clamp, Xenopus oocytes, ATP-gated current on rat P2X4R (P2X4 receptor)
Quantity: pEC50
pEC50 here is simply -log10 of the concentration when that concentration is written in mol/L.

// pEC50 lookup, compound = Nc1ncnc2c1ncn2[C@@H]1O[C@H](COP(=O)(O)OP(=O)(O)OP(=O)(O)O)[C@@H](O)[C@H]1O [ATP] , result: 5.30
